Assay: Partition coefficient log Po/w by HPLC (OECD 117)
Type: physicochemical
Details: HPLC method, OECD 117, methanol:water 3:1
Assign chromatographic logP to each entry below.
Answers are plain numbers.

Please review the following examples before continuing.
[[record]]
compound = "CCCCCCCCCCOC(=O)c1ccc(O)cc1O"
measured_endpoint = "chromatographic logP"
result = 6.9

[[record]]
compound = "O=C(O)c1ccc(O)c(O)c1 [3,4 DHB acid, 3,4 dihydroxybenzoic acid, reference compound]"
measured_endpoint = "chromatographic logP"
result = 0.8

[[record]]
compound = "CCCCOC(=O)c1ccc(O)c(O)c1"
measured_endpoint = "chromatographic logP"
result = 2.6


Hey, can you go through the list below and give me chromatographic logP for every item?
1. O=C(OC1CCCC1)c1ccc(O)cc1O
2. CCCCCCCCCCCCOC(=O)c1ccc(O)cc1O [Compound 8, dodecyl 2,4 dihydroxybenzoate]

1. 2.2
2. 7
